tested on: Sonic hedgehog protein (Shh); test: Sonic hedgehog microarray binding compounds – biochemical, small-molecule microarray, 635/667 nm fluorescence, primary screen (AID 1151); details: 635 nm fluorescence, higher = more signal;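 note: Shh protein binding to compounds spotted on small-molecule microarray slides; score combines spot fluorescence intensity with signal-to-noise across triplicate slides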
Measurement Name: composite z-score
Lab note: write the figure by itself, no unit.

Below, each entry is followed by its recorded composite z-score result.
Q: Supply measured composite z-score of O=C1OCCC=C[C@H]2OC34C=CCN(CCN5CCOCC5)C(=O)[C@H]3N(CCCCCO)C(=O)[C@@H]4C12 (some centres not stated) in your reply.
Ans: 0.139

Q: Supply measured composite z-score of C[C@H]1C2[C@H](Cc3ccccc3)NC(=O)[C@]23C(=O)NCC(=O)N2CCC[C@H]2C(=O)NC/C=C/CCC/C=C/C3[C@@H]2O[C@]12C (some centres not stated) in your reply.
Ans: 0.468

Q: Supply measured composite z-score of O=C1OCCC/C=C\[C@H]2OC34C=CCN(c5ccc6ccccc6c5)C(=O)[C@H]3N(CCCCCO)C(=O)[C@@H]4C12 (some centres not stated) in your reply.
Ans: -0.0295

Q: Supply measured composite z-score of COC(=O)[C@@]1(Cc2ccccc2)[C@H]2c3cc(C(=O)N(C)C)n(CCc4c[nH]c5ccc(O)cc45)c3C[C@H]2CN1C(=O)c1ccccc1 in your reply.
Ans: 0.647

Others:
Q: Supply measured composite z-score of CCCC=C(CCC)[C@@H](NC(=O)OCC(C)C)c1ccccc1 in your reply.
Ans: 0.661

Q: Supply measured composite z-score of COCCOC(=O)N1C(=O)[C@@]2(c3cc(C#CC4(O)CCCCCC4)ccc31)[C@H](C(=O)Nc1nc3ccccc3s1)[C@H]1C(=O)O[C@H](c3ccccc3)[C@H](c3ccccc3)N1[C@@H]2c1ccc(OCCO)cc1 in your reply.
Ans: 1.42

Q: Supply measured composite z-score of O=C(NCCN1CCOCC1)[C@@H]1c2ccccc2C(=O)N(Cc2cc(C(F)(F)F)cc(C(F)(F)F)c2)[C@H]1c1ccc(CO)cc1 in your reply.
Ans: -0.211

====

assay: probe aWnt5a binding to arrayed compounds – biochemical, biotinylated probe, 635/667 nm fluorescence, primary screen (AID 1113); settings: small-molecule microarray, higher = more signal;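 note: score merges 667 nm fluorescence intensity with signal-to-noise per printed feature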
Could you label it criterion met if measured composite z-score is 0.06 or higher, and criterion not met otherwise?

Q: Given the entry O=C1OCC=C[C@H]2OC34C=CCN(CCN5CCOCC5)C(=O)[C@H]3N(CCO)C(=O)[C@@H]4[C@@H]12 (stereo partly drawn) , answer whether its composite z-score meets or surpasses 0.06.
Ans: criterion not met

Q: Given the entry COC(=O)[C@@]1(Cc2ccccc2)[C@H]2c3cc(C(=O)N(C)C)n(CCc4c[nH]c5ccc(O)cc45)c3C[C@H]2CN1C(=O)c1ccccc1 , answer whether its composite z-score meets or surpasses 0.06.
Ans: criterion not met

Q: Given the entry C=CCNC(=O)[C@@H]1[C@H]2C(=O)O[C@H](c3ccccc3)[C@H](c3ccccc3)N2[C@H](c2ccc(OCCO)cc2)[C@@]12C(=O)N(C(=O)OCCOC)c1ccc(C#CCNC(N)=O)cc12 , answer whether its composite z-score meets or surpasses 0.06.
Ans: criterion not met

Q: Given the entry COCCOC(=O)N1C(=O)[C@@]2(c3ccccc31)[C@H](c1ccc(OCCO)cc1)N1[C@H](c3ccccc3)[C@H](c3ccccc3)OC(=O)[C@H]1[C@@H]2C(=O)N1CCc2cc(OC)c(OC)cc2C1 , answer whether its composite z-score meets or surpasses 0.06.
Ans: criterion not met

Q: Given the entry O=C1O[C@H](c2ccccc2)[C@H](c2ccccc2)N2[C@H]1[C@@H](C(=O)N1CCN(c3ncccn3)CC1)[C@]1(C(=O)Nc3ccc(C#CC4=CCCCC4)cc31)[C@H]2c1ccccc1OCCO , answer whether its composite z-score meets or surpasses 0.06.
Ans: criterion met

Q: Given the entry COCCOC(=O)N1C(=O)[C@@]2(c3ccccc31)[C@H](C(=O)N1CCCCCCC1)[C@H]1C(=O)O[C@H](c3ccccc3)[C@H](c3ccccc3)N1[C@@H]2c1ccc(OCCO)cc1 , answer whether its composite z-score meets or surpasses 0.06.
Ans: criterion met

====

system: wheat germ agglutinin (Triticum aestivum), Alexa647-labelled; test: Alexa647-WGA lectin binding to printed small molecules – biochemical, small-molecule microarray, 635/667 nm fluorescence, artefact control for SMM control-protein annotation, profiling panel (AID 1140); conditions: WGA-A647 binding, 635 nm fluorescence, higher = more signal;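 note: score merges 667 nm feature emission with signal to noise over triplicate slides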
Could you label it condition met if measured composite z-score is 0.7 or higher, and condition not met otherwise?

Q: Given the entry CCCCCCc1nc(-c2ccc(-c3ccc(Cl)c(Cl)c3)o2)cc2c1[Si](C(C)C)(C(C)C)O[C@H]2c1ccccc1 , answer whether its composite z-score meets or surpasses 0.7.
Ans: condition met

Others:
Q: Given the entry O=C1O[C@H](c2ccccc2)[C@H](c2ccccc2)N2[C@H]1[C@@H](C(=O)N1CCN(c3ncccn3)CC1)[C@]1(C(=O)Nc3ccc(C#CC4=CCCCC4)cc31)[C@H]2c1ccccc1OCCO , answer whether its composite z-score meets or surpasses 0.7.
Ans: condition met

Q: Given the entry CC(=O)Nc1cc(Br)ccc1C(=O)NCc1ccccc1 , answer whether its composite z-score meets or surpasses 0.7.
Ans: condition not met

Q: Given the entry O=C(CS)NCCCCCNC(=O)[C@H]1C[C@H]2C(=O)NCC(=O)N2[C@H]1c1ccc(O)cc1 , answer whether its composite z-score meets or surpasses 0.7.
Ans: condition not met

Q: Given the entry COCC(=C=CC[C@@H](O)c1ccc(OCCO)cc1)C[C@@H](O)c1ccccn1 , answer whether its composite z-score meets or surpasses 0.7.
Ans: condition not met

====

# z-score annotations
experiment: budding yeast growth changes without added modifier – OD600, strain BY4716, 24 h, basal condition, primary screen (AID 1173); conditions: S. cerevisiae BY4716 growth, OD600, 24 h; higher = more signal, called active from +8 up or from −8 down
Lab note: write the figure by itself, no unit.

Below, each entry is followed by its recorded z-score result.
Q: Supply measured z-score of COCCOC(=O)N1C(=O)[C@@]2(c3cc(C#CCCO)ccc31)[C@H](c1ccc(O)cc1)N1[C@H](c3ccccc3)[C@H](c3ccccc3)OC(=O)[C@H]1[C@@H]2C(=O)N1CCN(c2ncccn2)CC1 in your reply.
Ans: 0.467

Q: Supply measured z-score of COc1cc2c(cc1O)C(c1cccs1)N(Cc1ccc([N+](=O)[O-])o1)CC2 (stereo unspecified) in your reply.
Ans: -2.05

Q: Supply measured z-score of CCOC(=O)C1=CC[C@@H](c2ccc(C(F)(F)F)cc2)N(S(=O)(=O)c2ccc(C)cc2)[C@H]1c1ccccc1 in your reply.
Ans: 0.062

Q: Supply measured z-score of COC(=O)[C@]1(CCC(=O)OC(C)(C)C)N=C(c2ccc(OCCCO)cc2)O[C@@H]1c1ccccc1 in your reply.
Ans: -0.761

Q: Supply measured z-score of CCOc1ccc(N2C(=O)CSC2c2cccc([N+](=O)[O-])c2)cc1 (stereo unspecified) in your reply.
Ans: 0.269

Others:
Q: Supply measured z-score of CC(c1ccccc1)C(O)C1C=CC2C(=O)N(C)C(=O)C2N1NC(=O)OC(C)(C)C (stereo unspecified) in your reply.
Ans: -0.424

Q: Supply measured z-score of COCC(=C=CC[C@H](O)c1ccccc1OCCO)CCO in your reply.
Ans: -0.547

Q: Supply measured z-score of COC(=O)C(CC#Cc1ccc2c(c1)[C@]1(C(=O)N2)[C@H](c2ccccc2OCCO)N2[C@H](c3ccccc3)[C@H](c3ccccc3)OC(=O)[C@H]2[C@@H]1C(N)=O)C(=O)OC in your reply.
Ans: 0.858

Q: Supply measured z-score of O=C(NCc1ccccc1)[C@@H]1c2ccccc2C(=O)N(C2Cc3ccccc3C2)[C@H]1c1ccc(CO)cc1 in your reply.
Ans: 0.848

Q: Supply measured z-score of O=C1OCC=C[C@H]2OC34C=CCN(CCN5CCOCC5)C(=O)[C@H]3N(CCO)C(=O)[C@@H]4[C@@H]12 (stereo partly specified) in your reply.
Ans: -0.0819

====

assay: growth modulation of vineyard yeast isolate – strain RM11-1a, OD600, basal, 24 h, primary screen (AID 1177);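 note: cultures grown under basal conditions with no added stressor; test concentration not given here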; conditions: S. cerevisiae RM11-1a growth, OD600, 24 h; higher = more signal, called active from +8 up or from −8 down
Could you label it true (1) if measured z-score is 0.4 or higher, and false (0) otherwise?

Q: Given the entry N#Cc1ccc(C(O)C2C=CC3C(=O)N(c4ccccc4)C(=O)C3N2Nc2ccccc2F)cc1 (stereo not given) , answer whether its z-score meets or surpasses 0.4.
Ans: false (0)

Q: Given the entry COc1ccc(C(=O)Nc2cccc(CN3C(=O)[C@]4(O[C@H](CCn5cc(CCO)nn5)[C@@H]([Si](C)(C)c5ccc(OC)cc5)[C@@H]4C)c4ccccc43)c2)cc1 , answer whether its z-score meets or surpasses 0.4.
Ans: true (1)

Q: Given the entry COc1ccc([C@H]2C[C@H]3C(I)=C[C@@H]2C(=O)[C@]32CO2)cc1 , answer whether its z-score meets or surpasses 0.4.
Ans: false (0)

Q: Given the entry O=C1NC(=O)C2C1C=CC(C(O)C=Cc1ccc([N+](=O)[O-])cc1)N2Nc1ccc(Cl)cc1Cl (stereo not given) , answer whether its z-score meets or surpasses 0.4.
Ans: false (0)

Okay, next one:
Q: Given the entry CC(c1ccccc1)C(O)C1C=CC2C(=O)N(c3ccccc3)C(=O)C2N1Nc1ccccc1 (stereo not given) , answer whether its z-score meets or surpasses 0.4.
Ans: false (0)
